# measuredOn: T1, human glypican-3 (GPC3) (human, UniProt P51654 25-554)
# T1 construct: Endogenous on JHH-7, JHH-5, HepG2 and NCI-H446 tumour cells, or transiently expressed on CHO-S cells from a pTT5 plasmid; also called hGPC3; huGPC3
# assayInfo: flow cytometry on JHH-5 cells; antibody in mouse plasma, day 0
readoutKind: Bmax (MFI)
Answers are plain numbers, in MFI.

binder: H18L6_LC_G34K mAb, v40207 (antibody, human IgG1, kappa, V domains shown, Full-size IgG1/kappa) VH: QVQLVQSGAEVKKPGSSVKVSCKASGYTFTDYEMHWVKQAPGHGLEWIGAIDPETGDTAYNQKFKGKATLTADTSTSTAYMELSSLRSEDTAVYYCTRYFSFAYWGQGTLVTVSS VL: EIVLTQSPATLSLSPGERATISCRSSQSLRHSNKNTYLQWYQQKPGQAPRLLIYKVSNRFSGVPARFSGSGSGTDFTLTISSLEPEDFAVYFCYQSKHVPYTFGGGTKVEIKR
unitOfMeasurement: MFI
Bmax (MFI): 5490

// recorded Bmax (MFI) for H18L6_LC_G34Q mAb, v40208 (antibody, human IgG1, kappa, V domains shown, Full-size IgG1/kappa) VH: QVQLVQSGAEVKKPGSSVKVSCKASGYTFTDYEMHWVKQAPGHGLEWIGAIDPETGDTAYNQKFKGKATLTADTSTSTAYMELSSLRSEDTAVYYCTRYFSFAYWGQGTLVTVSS VL: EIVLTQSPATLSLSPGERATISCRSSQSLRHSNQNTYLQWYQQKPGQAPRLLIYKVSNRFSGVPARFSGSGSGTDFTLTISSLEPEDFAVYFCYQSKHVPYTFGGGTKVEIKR : 4730
